Tested on: K. pneumoniae (ATCC 43816) biofilm
Format: cell-based, Klebsiella pneumoniae
experimentalParameters: eradication rate greater than 99.9%
Description: To measure the antibiofilm activity of crabrolin and its derivatives, four drug-resistant biofilm-forming strains, MRSA (NCTC 12493), K. pneumoniae (ATCC 43816), E. faecium (NTCC-12697), and P. aeruginosa (ATCC 9027), were used in this assay. Tryptic soy broth (TSB) (for the Gram-positive bacteria) and Luria–Bertani broth (LB) (for the Gram-negative bacteria) were used to culture the bacteria. The mass of the biofilm in this assay was detected by the crystal violet staining method. […]
Residues, ends and D or L forms follow the SMILES beside them.
measurementLabel: MBEC
Please don't drop the unit; write it after the number.

What value of MBEC has been reported for the following compound? CC[C@H](C)[C@H](NC(=O)[C@H](CCCNC(=N)N)NC(=O)[C@@H]1CCCN1C(=O)[C@H](CC(C)C)NC(=O)[C@@H](N)CCCNC(=N)N)C(=O)N[C@@H](CC(C)C)C(=O)N[C@@H](CCCNC(=N)N)C(=O)N[C@@H](CCCCN)C(=O)N[C@H](C(=O)N[C@H](C(=O)N[C@@H](CCCNC(=N)N)C(=O)N[C@@H](C)C(=O)N[C@@H](CC(C)C)C(N)=O)C(C)C)[C@@H](C)CC [Crabrolin-FR, RLPRILRKIVRAL-NH2] (H-RLPRILRKIVRAL-NH2) 512 µM

====

Test system: MRSA (NCTC 12493)
procedureDetails: Antimicrobial susceptibility assay (MIC/MBC)
Type: cell-based, methicillin-resistant Staphylococcus aureus
experimentalParameters: MHB, 37 °C, 20 h
Residues, ends and D or L forms follow the SMILES beside them.
measurementLabel: MIC (µM)
// units = µM; emit number, no label

What value of MIC has been reported for the following compound? CC[C@H](C)[C@H](NC(=O)[C@H](CCCNC(=N)N)NC(=O)[C@H](CCCNC(=N)N)NC(=O)[C@H](CC(C)C)NC(=O)[C@@H](N)CCCNC(=N)N)C(=O)N[C@@H](CC(C)C)C(=O)N[C@@H](CCCNC(=N)N)C(=O)N[C@@H](CCCCN)C(=O)N[C@H](C(=O)N[C@H](C(=O)N[C@@H](CCCNC(=N)N)C(=O)N[C@@H](CCCNC(=N)N)C(=O)N[C@@H](CC(C)C)C(N)=O)C(C)C)[C@@H](C)CC [Crabrolin-PR, RLRRILRKIVRRL-NH2] (H-RLRRILRKIVRRL-NH2) 4

====

Tested on: horse erythrocytes
procedureDetails: Hemolysis assay
Format: cell-based
experimentalParameters: erythrocytes, 37 °C, 2 h
Residues, ends and D or L forms follow the SMILES beside them.
measurementLabel: HC50 (50% hemolytic concentration) (µM)
// units = µM; emit number, no label

Can you look up HC50 (50% hemolytic concentration) on horse erythrocytes for CC[C@H](C)[C@H](NC(=O)[C@H](CCCNC(=N)N)NC(=O)[C@@H]1CCCN1C(=O)[C@H](CC(C)C)NC(=O)[C@@H](N)Cc1ccccc1)C(=O)N[C@@H](CC(C)C)C(=O)N[C@@H](CCCNC(=N)N)C(=O)N[C@@H](CCCCN)C(=O)N[C@H](C(=O)N[C@H](C(=O)N[C@H](C(=O)N[C@@H](C)C(=O)N[C@@H](CC(C)C)C(N)=O)[C@@H](C)O)C(C)C)[C@@H](C)CC [Crabrolin-4R, FLPRILRKIVTAL-NH2] (H-FLPRILRKIVTAL-NH2) ? 216.266

====

Attribute: MBEC
Test system: E. faecium (NTCC12697) biofilm
Assay type: cell-based, Enterococcus faecium
experimentalParameters: eradication rate greater than 99.9%
Residues, ends and D or L forms follow the SMILES beside them.

# example entries with known answers
[[record]]
molecule = "CC[C@H](C)[C@H](NC(=O)[C@H](CCCCN)NC(=O)[C@@H]1CCCN1C(=O)[C@H](CC(C)C)NC(=O)[C@@H](N)Cc1ccccc1)C(=O)N[C@@H](CC(C)C)C(=O)N[C@@H](CCCNC(=N)N)C(=O)N[C@@H](CCCCN)C(=O)N[C@H](C(=O)N[C@H](C(=O)N[C@H](C(=O)N[C@@H](C)C(=O)N[C@@H](CC(C)C)C(N)=O)[C@@H](C)O)C(C)C)[C@@H](C)CC [Crabrolin-4K, FLPKILRKIVTAL-NH2] (H-FLPKILRKIVTAL-NH2)"
result = "> 512 µM"

[[record]]
molecule = "CC[C@H](C)[C@H](NC(=O)[C@H](CC(C)C)NC(=O)[C@@H]1CCCN1C(=O)[C@H](CC(C)C)NC(=O)[C@@H](N)Cc1ccccc1)C(=O)N[C@@H](CC(C)C)C(=O)N[C@@H](CCCNC(=N)N)C(=O)N[C@@H](CCCCN)C(=O)N[C@@H](CCCNC(=N)N)C(=O)N[C@H](C(=O)N[C@H](C(=O)N[C@@H](C)C(=O)N[C@@H](CC(C)C)C(N)=O)[C@@H](C)O)C(C)C [Crabrolin-9R, FLPLILRKRVTAL-NH2] (H-FLPLILRKRVTAL-NH2)"
result = ">512/>512 µM"

[[record]]
molecule = "CC[C@H](C)[C@H](NC(=O)[C@H](CCCNC(=N)N)NC(=O)[C@H](CCCNC(=N)N)NC(=O)[C@H](CC(C)C)NC(=O)[C@@H](N)CCCNC(=N)N)C(=O)N[C@@H](CC(C)C)C(=O)N[C@@H](CCCNC(=N)N)C(=O)N[C@@H](CCCCN)C(=O)N[C@H](C(=O)N[C@H](C(=O)N[C@@H](CCCNC(=N)N)C(=O)N[C@@H](CCCNC(=N)N)C(=O)N[C@@H](CC(C)C)C(N)=O)C(C)C)[C@@H](C)CC [Crabrolin-PR, RLRRILRKIVRRL-NH2] (H-RLRRILRKIVRRL-NH2)"
result = "> 512 µM"


Next:
What value of MBEC has been reported for the following molecule? CC[C@H](C)[C@H](NC(=O)[C@H](CCCNC(=N)N)NC(=O)[C@@H]1CCCN1C(=O)[C@H](CC(C)C)NC(=O)[C@@H](N)Cc1ccccc1)C(=O)N[C@@H](CC(C)C)C(=O)N[C@@H](CCCNC(=N)N)C(=O)N[C@@H](CCCCN)C(=O)N[C@H](C(=O)N[C@H](C(=O)N[C@H](C(=O)N[C@@H](C)C(=O)N[C@@H](CC(C)C)C(N)=O)[C@@H](C)O)C(C)C)[C@@H](C)CC [Crabrolin-4R, FLPRILRKIVTAL-NH2] (H-FLPRILRKIVTAL-NH2) > 512 µM

====

System: MRSA (NCTC 12493)
procedureDetails: Antimicrobial susceptibility assay (MIC/MBC)
Type: cell-based, methicillin-resistant Staphylococcus aureus
experimentalParameters: MHB, 37 °C, 20 h
Residues, ends and D or L forms follow the SMILES beside them.
measurementLabel: MIC (µM)
// units = µM; emit number, no label

What value of MIC has been reported for the following compound? CC[C@H](C)[C@H](NC(=O)[C@H](CCCNC(=N)N)NC(=O)[C@@H]1CCCN1C(=O)[C@H](CC(C)C)NC(=O)[C@@H](N)Cc1ccccc1)C(=O)N[C@@H](CC(C)C)C(=O)N[C@@H](CCCNC(=N)N)C(=O)N[C@@H](CCCCN)C(=O)N[C@H](C(=O)N[C@H](C(=O)N[C@@H](CCCNC(=N)N)C(=O)N[C@@H](C)C(=O)N[C@@H](CC(C)C)C(N)=O)C(C)C)[C@@H](C)CC [Crabrolin-TR, FLPRILRKIVRAL-NH2] (H-FLPRILRKIVRAL-NH2) 2

====

System: MRSA (NCTC 12493)
procedureDetails: Antimicrobial susceptibility assay (MIC/MBC)
Type: cell-based, methicillin-resistant Staphylococcus aureus
experimentalParameters: MHB, 37 °C, 20 h
Residues, ends and D or L forms follow the SMILES beside them.
measurementLabel: MIC (µM)
// units = µM; emit number, no label

[[record]]
molecule = "CC[C@H](C)[C@H](NC(=O)[C@H](CCCCN)NC(=O)[C@@H]1CCCN1C(=O)[C@H](CC(C)C)NC(=O)[C@@H](N)Cc1ccccc1)C(=O)N[C@@H](CC(C)C)C(=O)N[C@@H](CCCNC(=N)N)C(=O)N[C@@H](CCCCN)C(=O)N[C@H](C(=O)N[C@H](C(=O)N[C@H](C(=O)N[C@@H](C)C(=O)N[C@@H](CC(C)C)C(N)=O)[C@@H](C)O)C(C)C)[C@@H](C)CC [Crabrolin-4K, FLPKILRKIVTAL-NH2] (H-FLPKILRKIVTAL-NH2)"
assaytarget = "MRSA (NCTC 12493)"
resultunits = "µM"
numericvalue = 8

[[record]]
molecule = "CC[C@H](C)[C@H](NC(=O)[C@H](CCCNC(=N)N)NC(=O)[C@@H]1CCCN1C(=O)[C@H](CC(C)C)NC(=O)[C@@H](N)Cc1ccccc1)C(=O)N[C@@H](CC(C)C)C(=O)N[C@@H](CCCNC(=N)N)C(=O)N[C@@H](CCCCN)C(=O)N[C@H](C(=O)N[C@H](C(=O)N[C@H](C(=O)N[C@@H](C)C(=O)N[C@@H](CC(C)C)C(N)=O)[C@@H](C)O)C(C)C)[C@@H](C)CC [Crabrolin-4R, FLPRILRKIVTAL-NH2] (H-FLPRILRKIVTAL-NH2)"
assaytarget = "MRSA (NCTC 12493)"
resultunits = "µM"
numericvalue = 4


Next:
What value of MIC has been reported for the following molecule? CC[C@H](C)[C@H](NC(=O)[C@H](CCCNC(=N)N)NC(=O)[C@@H]1CCCN1C(=O)[C@H](CC(C)C)NC(=O)[C@@H](N)CCCNC(=N)N)C(=O)N[C@@H](CC(C)C)C(=O)N[C@@H](CCCNC(=N)N)C(=O)N[C@@H](CCCCN)C(=O)N[C@H](C(=O)N[C@H](C(=O)N[C@@H](CCCNC(=N)N)C(=O)N[C@@H](CCCNC(=N)N)C(=O)N[C@@H](CC(C)C)C(N)=O)C(C)C)[C@@H](C)CC [Crabrolin-AR, RLPRILRKIVRRL-NH2] (H-RLPRILRKIVRRL-NH2) 4
